# STUDY_TARGET: purified human recombinant GK (Homo sapiens)
# ASSAY_REMARKS: Glucokinase activity assay (coupled enzymatic GK/G6PD assay, NADH absorbance at 340 nm)
# Assay type: biochemical
# CONDITION_SET: Emax of % change in S0.5; vehicle S0.5 = 0%, 0 mM glucose = 100%; read-out: % Emax (with respect to % ΔS0.5)
MEASURE_NAME: Emax (%)

# MOLECULE, UNIT_SPEC, Emax
records = [
    ("N#Cc1ccc(Oc2cnc(NC(=O)C(OC3CCOCC3)c3ccc(S(=O)(=O)C4CC4)cc3)s2)cc1 (stereo not shown)", "%", 92),
    ("O=C(O)Cc1csc(NC(=O)C(Oc2ccc(F)cc2F)c2ccc(S(=O)(=O)C3CCCC3)cc2)n1 (stereo not shown)", "%", 90),
    ("O=C(Nc1nc2cccnc2s1)C(OC1CCOCC1)c1ccc(S(=O)(=O)C2CC2)cc1 (single isomer, unassigned; (-)) [Example H10A]", "%", 94),
    ("O=C(Nc1ncc(F)s1)C(Oc1ccc(F)cc1F)c1ccc(S(=O)(=O)C2CC2)cc1 (stereo not shown)", "%", 95),
]

###

# STUDY_TARGET: purified human recombinant GK (Homo sapiens, UniProt P35557)
# Sequence (P35557 whole entry): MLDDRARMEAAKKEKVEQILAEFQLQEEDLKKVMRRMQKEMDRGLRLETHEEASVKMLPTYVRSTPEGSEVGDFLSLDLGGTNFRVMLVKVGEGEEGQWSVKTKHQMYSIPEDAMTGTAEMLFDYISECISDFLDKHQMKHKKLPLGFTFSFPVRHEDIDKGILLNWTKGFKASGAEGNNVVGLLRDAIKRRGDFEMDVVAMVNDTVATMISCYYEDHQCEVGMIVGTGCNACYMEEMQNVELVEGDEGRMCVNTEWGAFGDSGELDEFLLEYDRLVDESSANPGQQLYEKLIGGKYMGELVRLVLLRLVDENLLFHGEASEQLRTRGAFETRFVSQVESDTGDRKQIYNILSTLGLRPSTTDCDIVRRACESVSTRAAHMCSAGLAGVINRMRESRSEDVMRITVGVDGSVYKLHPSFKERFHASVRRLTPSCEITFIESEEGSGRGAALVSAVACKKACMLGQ
# ASSAY_REMARKS: Glucokinase activity assay (coupled enzymatic GK/G6PD assay, NADH absorbance at 340 nm)
# CONDITION_SET: EC50 of % change in S0.5 of glucokinase for glucose, sigmoidal fit; read-out: EC50 (with respect to % ΔS0.5)
MEASURE_NAME: EC50 (nM)

# COMPOUND, EC50 [nM]
records = [
    ("NC(=O)c1cccc(Oc2cnc(NC(=O)C(Oc3ccc(F)cc3F)c3ccc(S(=O)(=O)C4CC4)cc3)s2)c1 (centres unmarked)", 200),
]

(A) Cn1ccc(NC(=O)C(Oc2ccc(Cl)cc2F)c2ccc(S(=O)(=O)C3CC3)cc2)n1 (centres unmarked)
(B) Cn1ccc(NC(=O)C(Oc2ccc(F)cc2F)c2ccc(S(=O)(=O)C3CCCC3)cc2)n1 (centres unmarked)
Ask: Consider entries A and B . Which has the numerically lower EC50? The response must carry the label of the picked entry.
Result: B
(B: 390 nM, A: 1370 nM)

###

# STUDY_TARGET: purified human recombinant GK (Homo sapiens)
# ASSAY_REMARKS: Glucokinase activity assay (coupled enzymatic GK/G6PD assay, NADH absorbance at 340 nm)
# Type: biochemical
# CONDITION_SET: Emax of % change in S0.5; vehicle S0.5 = 0%, 0 mM glucose = 100%; read-out: % Emax (with respect to % ΔS0.5)
MEASURE_NAME: Emax (%)

# COMPOUND, UNIT_SPEC, Emax
measured = [
    ("CC(C)Oc1ccc2nc(NC(=O)C(OC3CCOCC3)c3ccc(S(=O)(=O)C4CC4)cc3)sc2n1 (centres unmarked) [Example A82]", "%", 94),
    ("O=C(Nc1ncc(F)s1)C(Oc1ccc(F)cc1F)c1ccc(S(=O)(=O)C2CCCC2)c(Cl)c1 (centres unmarked) [Example A36]", "%", 95),
    ("O=C(Nc1ncc(F)s1)C(OC1CCOCC1)c1ccc(S(=O)(=O)C2CC2)cc1 (centres unmarked) [Example A114]", "%", 92),
    ("O=C(Nc1ncc(Cl)s1)C(Oc1ccc(F)cc1F)c1ccc(S(=O)(=O)C2CC2)cc1 (centres unmarked) [Example A2]", "%", 95),
    ("O=C(Nc1cc[nH]n1)C(Oc1ccc(Cl)cc1F)c1ccc(S(=O)(=O)C2CC2)cc1 (centres unmarked) [Example A45]", "%", 90),
    ("Cn1ccc(NC(=O)C(Oc2ccc(F)cc2F)c2ccc(S(=O)(=O)C3CCCC3)cc2)n1 (centres unmarked) [Example A38]", "%", 95),
    ("O=C(Nc1ncc(Oc2ccc(C(=O)N3CCC3)cc2)s1)C(Oc1ccc(F)cc1F)c1ccc(S(=O)(=O)C2CC2)cc1 (single isomer, unassigned; (+)) [Example H6A]", "%", 93),
    ("O=C(O)Cc1csc(NC(=O)C(Oc2ccc(F)cc2F)c2ccc(S(=O)(=O)C3CCCCC3)cc2)n1 (centres unmarked) [Example B16]", "%", 90),
]
